Measured EC50 accompanies every entry in the list below.
- target.desc: 5-HT2A (Homo sapiens, UniProt P28223)
- Sequence (P28223 whole entry): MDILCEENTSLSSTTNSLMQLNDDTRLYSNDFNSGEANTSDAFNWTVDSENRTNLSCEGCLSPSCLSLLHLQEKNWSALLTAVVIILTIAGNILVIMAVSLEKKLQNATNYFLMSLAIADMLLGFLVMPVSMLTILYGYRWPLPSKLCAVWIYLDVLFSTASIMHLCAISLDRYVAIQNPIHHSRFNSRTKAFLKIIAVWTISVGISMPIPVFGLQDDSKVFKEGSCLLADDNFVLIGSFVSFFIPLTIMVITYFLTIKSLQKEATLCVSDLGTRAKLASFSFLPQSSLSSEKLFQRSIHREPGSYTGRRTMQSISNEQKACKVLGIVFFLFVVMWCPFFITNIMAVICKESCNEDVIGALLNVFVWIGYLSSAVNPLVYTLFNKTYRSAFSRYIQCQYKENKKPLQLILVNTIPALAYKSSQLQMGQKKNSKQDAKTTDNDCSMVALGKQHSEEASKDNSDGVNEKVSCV
- assay.comment: Serotonin 5-HT2A in vitro cellular IPOne agonism assay (HTRF)
- condition: CHO-K1 cells, agonist mode

The following compounds have reported results that may help.
compound: c1ccn2c(C3CCNC3)ncc2c1 (stereo not shown)
value.reported: > 10 µM
//
compound: Cc1cccc2cnc(CC(C)N(C)C)n12 (stereo not shown)
value.reported: > 10 µM
//
compound: Cc1ccc2cnc(CC(C)N)n2c1 (stereo not shown)
value.reported: 1 to 10 µM
//
compound: CC(N)Cc1ncc2cc(F)ccn12 (stereo not shown)
value.reported: > 10 µM
//
compound: CN(C)CCc1ncn2ccccc12
value.reported: > 10 µM

QUERY: Consider the compound CN1CCCC1Cc1ncc2ccccn12 (stereo not shown) . State its measured EC50.
RESULT: > 10 µM

QUERY: Consider the compound NCCc1ncn2ccccc12 . State its measured EC50.
RESULT: 1 to 10 µM

QUERY: Consider the compound CN(C)CCc1ncc2ccccn12 . State its measured EC50.
RESULT: > 10 µM

QUERY: Consider the compound CC(Cc1cnc2cc(F)ccn12)N(C)C (stereo not shown) . State its measured EC50.
RESULT: > 10 µM
